assay.info: yeast display, Sf9 membrane polyspecificity reagent, FACS + sequencing; frameworks hold sequencing errors
readout.type: polyreactivity (PSR sort gate)

Look over these answered cases.
sequence.entry	polyreactivity (PSR sort gate)
QVQLVESGGGLVQAGGSLRLSCAASGIIFDSYTMGWYRQAPGKERELVAAISVSGGSTYYADSVKGRFTISRDNAKNTVYLQMNSLKPEDTAVYYCATVPSLPDYDSWGQGTQVTVSS	low polyreactivity
QVQLVESGGGLVQAGGSLRLSCAASGSTFHRNAMGWYRQAPGKERELVAAISFSGGRTYYADSVKGRFTISRDNAKNTVYLQMNSLKPEDTAVYYCAAVTASPGSYPDDYWGQGTQVTVSS	low polyreactivity
QVQLVESGGGLVQAGGSLRLSCAATGSTFGPYVMGWYRQAPGKERELVAVISGGSTDYADSVKGRFTISRDNAKNTVYLQMNTLKPEDTAVYYCNAVLYVQDRLTRVDYDYWGQGTQVTVSS	high polyreactivity
QVQLVESGGGLVQAGGSLRLSCAASGFTFVGNAMGWYRQAPGLERELVAAITRGGSSYYADSVKGRFTISRDNAKKTVYLQMNSLKPEDTAVYYCNAELPVHWSWYDYWGQGTQVTVSS	low polyreactivity
QVQLVESGVGLVQAGGSLRLSCAASGRIFGFYAMGWYRQAPGKESELVAAITVSGSSTRYADSVKGRFTISRDIAKNTFYLQMNSLKPEDTGVYYCAAFNRCSGGFDYWGQGTQVTVSS	high polyreactivity

Answer with the recorded polyreactivity (PSR sort gate) for the sequence listed here: "QVQLVESGGGLVQAGGSLRLSCAASGRIFYFNAMGWYRQAPGKERELVADISTGGRTNYADSVKGRFTISRDNAKNTVYLQMNSLNPEDTAVYYCNAEPYTSSGGYRGYDFDYWGQGTQVTVSS"
low polyreactivity

Answer with the recorded polyreactivity (PSR sort gate) for the sequence listed here: "QVQLVESGGGLVQAGGSLRLSCAASGFTFVKYAMGWYRQAPGKERELVAVISRRGGSTYYADSVKGRFTISRDNAKNTVYLQMNSLKPEDTAVYYCAAKVALPRTQEWEYGYWGQGTQVTVSS"
high polyreactivity

Answer with the recorded polyreactivity (PSR sort gate) for the sequence listed here: "QFQLVESGGGLLQAGGSLRLSCAASGSTFYRYVMGWYRQATGKERELVAAITWRGGTTYYADSVKGRFTISRDNAKNTVYLKMISLKPDDTAVYYCNADRGGLRWFWQVLYDYWGQGTQVTVSS"
low polyreactivity

Answer with the recorded polyreactivity (PSR sort gate) for the sequence listed here: "QVQLVESGGGLVQAGGSLRLSCAASGRTSQYYAMGWYRPAPGKERELVASISRSGRTYYADSVKGRFTISRDNAKNTVYLQMNSLKPEDTAVYYCAAAKRTTHRYPYDYWGQGTQVTVSS"
high polyreactivity

Answer with the recorded polyreactivity (PSR sort gate) for the sequence listed here: "QVQLVESGGGLVQAGGSLRLRCAASGLIFGTYAMGWYRQAPGKERELVATISQIGGSTYYADSVKGRFTISRDNAKNTVYLEMNSLKPEETAVYYCAVDGGEFSSYGYWGQGTQVTVSS"
low polyreactivity

Answer with the recorded polyreactivity (PSR sort gate) for the sequence listed here: "QVQLVESGGGLVQAGGSLRLSCAASGITFFPYAMGWYRQAPGKERELVASISDGGGTNYADSVKGRFTISRDNAKNTVYFQMNSLKPEDTAVYYCATDASTYAYYGGDYWGQGTQVTVSS"
low polyreactivity

###

assay.info: yeast display, Sf9 membrane polyspecificity reagent, FACS + sequencing; frameworks hold sequencing errors
readout.type: polyreactivity (PSR sort gate)

Look over these answered cases.
sequence.entry	polyreactivity (PSR sort gate)
QVQLVESGGGLVQAGGSLRLSCAASGSIFRIYAMGWYRQAPGKERELVAAITKRGGSTYYADSVKGRFTISRDNAKNTVYLQMNSLKPEDTAVYYCAARFYSGYSYDYWGHGTQVTVSS	high polyreactivity
QVQLVESGGGLVQAGGSLRLSCAASGSNFYVYAMLWYRQAPGKERELVADITTRDGDTYYADSVKGRFTISRDNAKNTVYLQMNSLKPEDTAVYYCAADLNAYPLRAYDYWGQGTQVTVSS	low polyreactivity
QVQLVESGGGLVQAGGSLRLSCAASGLTVVIYAMGWYRKAPGKERELVARITCSGGSTYYADSVKGRFTISRDNAKNTVYLQMISLQPEVTAVYYCAARRFYYYNAVYDYWGQGTQVTVSS	low polyreactivity
QVQIVESGGGLVQAGGSLRLSCAASGGTFPAYAMGWYRHAPGKERELVAAISDDDSTYYADSVKGRFTISRDNAKNTVYLQKNSLKPEDTAVYYCNVEYWYYPSVEYSWTAYDYWGQGTQVTVSS	low polyreactivity
QVQLVESGGGLVQAGGSLRLSCAASGFIFRSYAMGWYRQAPGKERELVAAITRSGGSTYYADSVKGRFTISRDNAKNTDYLQMNSLKPEDTAVYYCATRRYWYYILDYWGQGTQVTVSS	high polyreactivity
QVQLVESGGGLVQAGGSLSLSCAASGRIFGRNAMGWYRQAPGKERELVAAISSSGGTYYADSVKGRFTISRDNAKNTVYLQMISLKPEDTAVYYCNDRVRTQQRWVDYWGQGTQVTVSS	high polyreactivity
QVQLVESGGGLVQAGGSLRLSCAASGFIFQAYAMGWYRQAPGKERELVASISYSGSRTYYADSVKGRFTISRDNAKNTVYLQMNSLKPEDTAVYYCAAGPRYWAPWFGRDYEYWGQGTQVTVSS	high polyreactivity
QVQLVESGGGLVQAGGSLRLSCAASGSIFSSNAMGWYRQAPGKERELVAAITRGGRTTYADSVKGRFTISRDNAKNTVYLQMNSLKPEDTAVYYCAALHGRYPNRYDYWGQGTQVTVSS	low polyreactivity

Answer with the recorded polyreactivity (PSR sort gate) for the sequence listed here: "QVQLVESGGGLDQAGGSLRLSCAASGRIGYYAMGWYRQAPGKETELVAAISYGGGSTYYADSVKGRFTISRDNAKNTVYLQLNSLKPEDTAVYYCAARWGKSWRGYGYWGQGTLVTVSS"
high polyreactivity

Answer with the recorded polyreactivity (PSR sort gate) for the sequence listed here: "QVQLEESGGGLVQAGGSLRLSCAASGLIIRAYAMGWSRQAPGKERELVAAITSSSGSTYYADSVKGRFTISRDNGKNSVYLQMNSLNPEDTAVYYCNAYSTFGWYDYWGQGTQVTVSS"
low polyreactivity

Answer with the recorded polyreactivity (PSR sort gate) for the sequence listed here: "QVQLQESGGGLVQAGGSLCLSCAASSYFSTYYSMGSYRKAPSKGRELVAAIDSGSSTNYADSVEGRFTISRDNAKNTVYLQMNSLKPGDTAVYYCAARDDARRGFYYWGQGTQVTVSS"
high polyreactivity

###

assay.info: yeast display, Sf9 membrane polyspecificity reagent, FACS + sequencing; frameworks hold sequencing errors
readout.type: polyreactivity (PSR sort gate)

sequence.entry	readout.type	measured.value
QVQLVESGGGLVQAGGSLRLSCAASGSIFTEDAMGWYRQAPGKERELVAAISWSGATTYYADSVKGRFTISRDKAKNPVDLQMNSLKPEDTAVYYCAARWANRSYEYWGQGTQVTVSS	polyreactivity (PSR sort gate)	low polyreactivity
QVQLVESGGGLVQAGGRLRLSCAASGSTFSDYAMGWYRQAPGKERELVADISRSGASTYYADSVKGRFTISRYNAKNTVYLQMNSLKPEDTPVYSSNKAYSGVRYDSWGPGTQVTVSS	polyreactivity (PSR sort gate)	low polyreactivity

###

assay.info: yeast display, Sf9 membrane polyspecificity reagent, FACS + sequencing; frameworks hold sequencing errors
readout.type: polyreactivity (PSR sort gate)

sequence.entry	measured.value
QVQIEESVGDLVQAGGSLRLICAASGRTFPVYDMGWYRQAPGKERELVAAISRRAVRTYYADSVKGRFTISRDIAKNTVYLQMNSLKPEDTAVYYCNAVLRKITYDYWGQGTQVTVSS	high polyreactivity
QVQLVESGGGLVQAGGSLRLSCAASGRIFRYYAMGWYRQAPGKERELVATISGRGGSTYYADSVKGRFTISRDNAKNTVYLQMNSLKPEDTAVYYCNTVSTRYIYDYWGQGTQVTVSS	high polyreactivity
QVQLVESGGGLVQAGGSLRLSCAASGSIFRHYTMGWYRQAPGIERELVAVISSGGNTNYADSVKGRFTISRDNAKNTVYLQMNSLKPEDTAVDDCAARSHRYYSRVNYWGQGTQVTVSS	high polyreactivity
QVQLVESGGGLVQAGGSLRLSCAASGSTFAYYAMGRYRQAPGKERELVAAISTIAGRTYYADSVKGRFTISRDTAKNSVSLQMNSLNPEDTAFYYCNAYWWFFGGYDYWGQGTQVTVSS	high polyreactivity
QVQLVESGGGLVQAGGSLRLSCAASGSTFLTYAMGWYRQAPGKERELVAGISYSTGSTYYADSVKGRFTISRDNAKNTVYLQMHSLKPEDTAVYYCAADEWDGLRYYYYFNYEYWGQGTQVTVSS	low polyreactivity

Answer with the recorded polyreactivity (PSR sort gate) for the sequence listed here: "QVQLVESGGGLVQAGGSLRLSCAASGLIFDKYAMGWYRQAPGKERELVAAITRSSGTTYYADSVKGRFTISRDNAKNTVYLQLNSLKPEDTAVYYCAARFIWGYWGVGYYYWGLGTQVTVSS"
low polyreactivity

Answer with the recorded polyreactivity (PSR sort gate) for the sequence listed here: "QVQLVESGGGLVQAGGSLRLSCAASGNTFPRYVMGWYRQAPGKERELVADITRRGGSTYYADSVKGRFTISRDNAKNTVYLQMNSLKPEDTAVYYCAALYLYGHQFYNDYYYWGQGTQVTVSS"
high polyreactivity

Answer with the recorded polyreactivity (PSR sort gate) for the sequence listed here: "QVQLVESGGGLVQAGGSLRLSCAASGSSFVRNGMGWYRQAPGKERELVASIRGSGSRTYYADSVKGRFTISRDNAKNTVYLQMNSLKPEDTAVYYCAAGYWRYYHYPPASGYWGQGTQVTVSS"
high polyreactivity

Answer with the recorded polyreactivity (PSR sort gate) for the sequence listed here: "QVQLVQSVGGLVQAGGSLRLSSAASGSTFTVYAMGWYRQAPGKERELVAAISWRGGSTYYADSVKGRFTISRDNAKKTVYLQMNSLKPEDTAVYYCAADGLDIAPYGYGYWGQGTQVTVSS"
low polyreactivity

Answer with the recorded polyreactivity (PSR sort gate) for the sequence listed here: "QVQLVESGGGLVQAGGSLRLSCAASGITFTSYAMGWYRQAPGKERELVAAISSSGGSTYYADSVKGRFTISRDNAKNTVYLQMNSLKPEDPAVYYCNARPRSRSPRVEYDYWGQGTQVTVSS"
high polyreactivity

Answer with the recorded polyreactivity (PSR sort gate) for the sequence listed here: "QVQLVESGGGLVQAGGSLRLSCAASGRTFRYNAMGWYRQAPGKERELVAAITWGGGSTYYADSVKGRFTISRDNAKYTVYLQMNSLKPEDTAVYYCNADYIGNYQSIYQYDYWGQGTQVTVSS"
low polyreactivity

Data origin: the nanobody polyreactivity screen of Harvey et al. (2022)
